Molecular target: OPRK1 (Homo sapiens, UniProt P41145)
Construct: purchased Promega (in-house HiBiT-GPCR construct library, NanoBRET)
Sequence (P41145 whole entry): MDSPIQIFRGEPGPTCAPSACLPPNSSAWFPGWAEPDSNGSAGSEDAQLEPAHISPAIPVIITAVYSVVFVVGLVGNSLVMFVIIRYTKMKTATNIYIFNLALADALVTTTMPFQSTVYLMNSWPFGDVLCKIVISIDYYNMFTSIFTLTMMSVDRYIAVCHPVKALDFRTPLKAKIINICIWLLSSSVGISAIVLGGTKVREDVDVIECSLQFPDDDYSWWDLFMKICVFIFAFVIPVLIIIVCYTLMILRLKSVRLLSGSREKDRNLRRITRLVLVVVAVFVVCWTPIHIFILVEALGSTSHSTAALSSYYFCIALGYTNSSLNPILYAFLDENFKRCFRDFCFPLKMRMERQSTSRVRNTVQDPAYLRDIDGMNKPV
Test: NanoBRET screen HiBiT-OPRK1 in HEK293
Type: binding
Settings: OPRK1; tracer 1μM
Recorded NanoBRET Fold Response values for a group of compounds are listed next.
No unit in the answer, please; the number alone is enough.

Some compounds with known NanoBRET Fold Response results, for comparison:
O=C(CCc1ccc2n1[B-](F)(F)[N+]1=C(c3ccc[nH]3)C=CC1=C2)NCc1ccc(C(=O)NCCOCCC(=O)N[C@@H]2CC[C@@]3(O)[C@H]4Cc5ccc(O)c6c5[C@@]3(CCN4CC3CC3)[C@H]2O6)cc1 [Naltrexone-3-NB590] | 1.53
CCCn1c(=O)c2[nH]c(-c3ccc(OCC(=O)NCCNC(=O)CCOCCNC(=O)c4ccc(CNC(=O)CCc5ccc6n5[B-](F)(F)[N+]5=C(c7ccc[nH]7)C=CC5=C6)cc4)cc3)nc2n(CCC)c1=O [XAC-3-NB590] | 1.34
N#CN=C(NCCCOc1cccc(CN2CCCCC2)c1)NCCNC(=O)CCOCCOCCOCCOCCNC(=O)CCc1ccc2n1[B-](F)(F)[N+]1=C(c3ccc[nH]3)C=CC1=C2 [Aminopotentidine-2-NB590] | 1.07
Cc1nc2n(c(=O)c1CCN1CCC(c3noc4cc(F)ccc34)CC1)CCCC2OC(=O)NCCOCCOCCOCCOCCNC(=O)CCc1ccc2n1[B-](F)(F)[N+]1=C(c3ccc[nH]3)C=CC1=C2 (centres unmarked) [Risperidone-2-NB590] | 0.99

Query Cc1cc2c(s1)Nc1ccccc1N=C2N1CCN(CCCNC(=O)CCOCCOCCOCCOCCNC(=O)CCc2ccc3n2[B-](F)(F)[N+]2=C(c4ccc[nH]4)C=CC2=C3)CC1 [Olanzapine-a-2-NB590] yields NanoBRET Fold Response of 1.16
